Test system: LNCaP tumor-transplanted mouse
test-name: Internal radioactivity distribution using LNCaP tumor-transplanted mouse
Assay type: in vivo
condition-set: 192 h after administration
The label is 1 for Lung below 0.7 % ID/g and -1 for Lung equal to or exceeding 0.7 % ID/g.

query: Field: below-cutoff. Rule: recorded Lung strictly less than 0.7 % ID/g. Subject: O=C([O-])CN(Cc1cccc(C(=O)[O-])n1)C[C@H](Cc1ccc(NC(=O)[C@H](CCCCNC(=O)CCC(=O)NCCCC[C@H](NC(=O)N[C@@H](CCC(=O)O)C(=O)O)C(=O)O)NC(=O)COCCOCCOCC(=O)N[C@@H](CCCCNC(=O)CCCc2ccc(I)cc2)C(=O)O)cc1)N(CC(=O)[O-])Cc1cccc(C(=O)[O-])n1.[111In+3] [[^111In]In-Octapa-3]
result: 1

query: Field: below-cutoff. Rule: recorded Lung strictly less than 0.7 % ID/g. Subject: O=C([O-])CN(Cc1cccc(C(=O)[O-])n1)C[C@H](Cc1ccc(NC(=O)[C@H](CCCCNC(=O)CCC(=O)NCCCC[C@H](NC(=O)N[C@@H](CCC(=O)O)C(=O)O)C(=O)O)NC(=O)CCCc2ccc(I)cc2)cc1)N(CC(=O)[O-])Cc1cccc(C(=O)[O-])n1.[111In+3] [[^111In]In-Octapa-2]
result: 1

query: Field: below-cutoff. Rule: recorded Lung strictly less than 0.7 % ID/g. Subject: O=C([O-])CN(CCN(CCc1ccc(NC(=O)[C@H](CCCCNC(=O)CCC(=O)NCCCC[C@H](NC(=O)N[C@@H](CCC(=O)O)C(=O)O)C(=O)O)NC(=O)CCCc2ccc(I)cc2)cc1)CCN(CC(=O)[O-])Cc1cccc(C(=O)[O-])n1)Cc1cccc(C(=O)[O-])n1.[111In+3] [[^111In]In-Neunpa-2]
result: 1

query: Field: below-cutoff. Rule: recorded Lung strictly less than 0.7 % ID/g. Subject: O=C([O-])CN1CCN(C(CCC(=O)NCCCC[C@H](NC(=O)N[C@@H](CCC(=O)O)C(=O)O)C(=O)O)C(=O)[O-])CCN(CC(=O)[O-])CCN(C(CCC(=O)Nc2ccccc2)C(=O)[O-])CC1.[111In+3] (some centres unmarked) [[^111In]In-PSMA-DB, reference compound]
result: 1

query: Field: below-cutoff. Rule: recorded Lung strictly less than 0.7 % ID/g. Subject: O=C([O-])CN1CCN(C(CCC(=O)NCCCC[C@H](NC(=O)N[C@@H](CCC(=O)O)C(=O)O)C(=O)O)C(=O)[O-])CCN(CC(=O)[O-])CCN(C(CCC(=O)N[C@@H](CCCCNC(=O)CCCc2ccc(I)cc2)C(=O)O)C(=O)[O-])CC1.[111In+3] (some centres unmarked) [[^111In]In-PSMA-DA1]
result: -1
